Molecular target: S1P1 (Homo sapiens, UniProt P21453)
Sequence (P21453 whole entry, species assumed): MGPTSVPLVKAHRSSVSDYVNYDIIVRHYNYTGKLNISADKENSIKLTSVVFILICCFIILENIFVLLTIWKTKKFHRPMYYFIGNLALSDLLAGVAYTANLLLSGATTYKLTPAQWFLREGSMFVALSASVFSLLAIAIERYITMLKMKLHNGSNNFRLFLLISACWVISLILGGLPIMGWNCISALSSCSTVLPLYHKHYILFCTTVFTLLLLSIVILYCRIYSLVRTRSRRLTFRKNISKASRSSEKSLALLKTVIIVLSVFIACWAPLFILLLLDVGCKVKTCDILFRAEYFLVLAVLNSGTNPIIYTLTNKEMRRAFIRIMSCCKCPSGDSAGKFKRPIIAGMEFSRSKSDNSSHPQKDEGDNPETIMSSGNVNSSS
Experiment: Beta arrestin assay (in vitro S1P1 activity)
Settings: in vitro beta-arrestin agonist assay
Protocol: The in vitro S1P1 activity was determined in the beta arrestin assay.
metric: EC50 (µM)

[
  {
    "compound": "O=C(O)CC1CCc2c1[nH]c1ccc(OCc3ccc(C4CCC(O)C4)c(C(F)(F)F)c3)cc21 (single isomer, unassigned) [Compound 2-1]",
    "EC50 [µM]": 0.0521
  },
  {
    "compound": "O=C(O)CC1CCc2c1[nH]c1ccc(OCc3ccc(C4CCC(O)C4)c(C(F)(F)F)c3)cc21 (single isomer, unassigned) [Compound 2-2]",
    "EC50 [µM]": 0.0856
  },
  {
    "compound": "O=C(C[C@H]1CCc2c1[nH]c1ccc(OCc3ccc(C4CCCC4)c(C(F)(F)F)c3)cc21)OC1O[C@H](C(=O)O)[C@@H](O)[C@H](O)[C@H]1O (some centres unmarked)",
    "EC50 [µM]": 0.0039
  }
]

P. O=C(O)CC1CCc2c1[nH]c1ccc(OCc3ccc(C4CCCC4O)c(C(F)(F)F)c3)cc21 (mixture of isomers) [Compound 4]
Q. O=C(O)CC1CCc2c1[nH]c1ccc(OCc3ccc(C4CCCC4O)c(C(F)(F)F)c3)cc21 (centres unmarked) [Compound 4-1]
Query: Just tell me: smaller EC50 value, P or Q ? I would appreciate it if you answered with the label of your choice.
Result: P
